So I've got a bunch of binders here, and I need their 抑制cAMP活性 MAX values.
Molecular target: T1, 人CX3CL1胞外区蛋白 CX3CL1(Q25-Q341)-6xHis (human, UniProt P78423 25-341)
T1 sequence: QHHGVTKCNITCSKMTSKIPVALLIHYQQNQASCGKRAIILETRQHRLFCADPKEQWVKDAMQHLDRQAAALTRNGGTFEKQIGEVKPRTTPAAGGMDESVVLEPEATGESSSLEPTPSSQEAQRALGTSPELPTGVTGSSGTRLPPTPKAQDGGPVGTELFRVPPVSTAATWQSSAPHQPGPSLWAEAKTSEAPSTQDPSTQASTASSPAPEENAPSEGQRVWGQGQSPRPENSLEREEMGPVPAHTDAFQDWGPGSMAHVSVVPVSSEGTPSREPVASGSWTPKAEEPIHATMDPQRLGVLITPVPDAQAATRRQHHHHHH
Assay: cell-based or functional assay
Form field (numeric): enter value without unit.

q: Output 抑制cAMP活性 MAX of HumAb022-4 (antibody, human IgG2, kappa, V domains shown, Full-length humanized IgG2/kappa antibody) VH: EVQLVQSGAEVKKPGATVKISCKASGYTFTDYYMNWVQQAPGKSLEWMGDINPNQGGTNYNQKFKGRVTLTVDKSTSTAYMELSSLRSEDTAVYYCASSGNSYVDYWGQGTTVTVSS VL: DIQMTQSPSSLSASVGDRVTITCKASQDVSTAVAWYQQKPGKAPKLLLYWASTRHTGVPSRFSGSGSGTDYTLTISSLQPEDFATYYCQQHYSSPYTFGGGTKVEIKR
a: 100

q: Output 抑制cAMP活性 MAX of C032QG (antibody, human IgG2, kappa, V domains shown, Chimeric IgG2 mutant of C032 removing the NG hot spot of HCDR2 (NG to QG)) VH: EVQLQQSGPELVKPGASVKISCKASGYTFTDYYMNWVKQSHGKSLEWIGDINPNQGGTSYNQKFKGKATLTVDKSSSTAYMELRSLTSEDSAVYYCASSGNSYVDYWGQGTTLTVSS VL: DIVMTQSHKFMSTSVGDRVSITCKASQDVSTAVAWYQQKPGQSPKLLIYWASTRHTGVPDRFTGSGSGTDYTLTISSVQAEDLALYYCQQHYSSPYTFGGGTKLEIKR
a: 97

q: Output 抑制cAMP活性 MAX of mAb032 (antibody, V domains shown, Murine monoclonal antibody purified from hybridoma supernatant; also called 18H6F1) VH: EVQLQQSGPELVKPGASVKISCKASGYTFTDYYMNWVKQSHGKSLEWIGDINPNNGGTSYNQKFKGKATLTVDKSSSTAYMELRSLTSEDSAVYYCASSGNSYVDYWGQGTTLTVSS VL: DIVMTQSHKFMSTSVGDRVSITCKASQDVSTAVAWYQQKPGQSPKLLIYWASTRHTGVPDRFTGSGSGTDYTLTISSVQAEDLALYYCQQHYSSPYTFGGGTKLEIK
a: 115
